Some compounds, each annotated with its measured Water Adsorption.
# experimental.protocol: Gravimetric vapour sorption (GVS), water vapour adsorption
# Format: physicochemical
# assay.setup: 40 % RH
Please give a number only; it is taken to be in wt %.

Example entries begin here.
Ask | Item CCCCC1=NC2(CCCC2)C(=O)N1Cc1ccc(-c2ccccc2-c2nnn[nH]2)cc1 [Sample A, irbesartan] : provide Water Adsorption
Reply | 0.24

Ask | Item CCCCC1=NC2(CCCC2)C(=O)N1Cc1ccc(-c2ccccc2-c2nnn[nH]2)cc1 [Sample D, irbesartan] : provide Water Adsorption
Reply | 0.26

Ask | Item CCCCC1=NC2(CCCC2)C(=O)N1Cc1ccc(-c2ccccc2-c2nnn[nH]2)cc1 [Sample B, irbesartan] : provide Water Adsorption
Reply | 0.13

# next compound below
Ask | Item CCCCC1=NC2(CCCC2)C(=O)N1Cc1ccc(-c2ccccc2-c2nnn[nH]2)cc1 [Sample C, irbesartan] : provide Water Adsorption
Reply | 0.15
